- target: UniProt P06276
- Sequence (P06276 whole entry): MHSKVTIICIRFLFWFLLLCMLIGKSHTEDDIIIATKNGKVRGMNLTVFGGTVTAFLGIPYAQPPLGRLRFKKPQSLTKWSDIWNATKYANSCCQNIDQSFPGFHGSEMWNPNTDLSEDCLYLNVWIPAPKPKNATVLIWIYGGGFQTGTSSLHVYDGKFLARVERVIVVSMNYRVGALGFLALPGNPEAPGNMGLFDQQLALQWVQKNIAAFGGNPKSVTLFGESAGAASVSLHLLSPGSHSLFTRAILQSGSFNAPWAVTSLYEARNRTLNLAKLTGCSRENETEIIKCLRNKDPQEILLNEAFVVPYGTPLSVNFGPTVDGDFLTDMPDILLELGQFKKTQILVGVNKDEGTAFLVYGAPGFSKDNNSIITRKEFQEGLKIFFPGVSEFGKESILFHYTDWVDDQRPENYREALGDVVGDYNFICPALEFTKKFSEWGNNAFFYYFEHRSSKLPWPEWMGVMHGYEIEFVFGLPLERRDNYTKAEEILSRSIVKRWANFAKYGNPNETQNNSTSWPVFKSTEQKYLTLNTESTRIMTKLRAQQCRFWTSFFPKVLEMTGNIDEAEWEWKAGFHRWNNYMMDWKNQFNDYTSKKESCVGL
- test name: Inhibition of human plasma BuChE by modified Ellman's spectrophotometric method

structure as smiles | units | Ki
CC(C)N(C(=O)N1c2ccccc2Sc2ccccc21)C(C)C | µM | 0.18
COc1ccc(NC(=O)N2c3ccccc3Sc3ccccc32)cc1 | µM | 9.63
O=C(NCCN1CCCC1)N1c2ccccc2Sc2ccccc21 | µM | 0.21
O=C(NCc1cccc2ccccc12)N1c2ccccc2Sc2ccccc21 | µM | 0.15
CCCNC(=O)N1c2ccccc2Sc2ccccc21 | µM | 20.5
CN(C)C(=O)N1c2ccccc2Sc2ccccc21 | µM | 9.2
CN(CCCNC(=O)N1c2ccccc2Sc2ccccc21)c1ccccc1 | µM | 0.25
CCN(CC)CCNC(=O)N1c2ccccc2Sc2ccccc21 | µM | 0.51
CC(C)(C)NC(=O)N1c2ccccc2Sc2ccccc21 | µM | 10.6
O=C(NCCc1ccccc1)N1c2ccccc2Sc2ccccc21 | µM | 0.19
COCCNC(=O)N1c2ccccc2Sc2ccccc21 | µM | 29.1
CC(C)N(CCNC(=O)N1c2ccccc2Sc2ccccc21)C(C)C | µM | 0.009
O=C(N1CCOCC1)N1c2ccccc2Sc2ccccc21 | µM | 7.1
Cc1ccccc1NC(=O)N1c2ccccc2Sc2ccccc21 | µM | 0.71
O=C(Nc1ccc(Cl)cc1)N1c2ccccc2Sc2ccccc21 | µM | 4.69
O=C(Nc1ccccc1)N1c2ccccc2Sc2ccccc21 | µM | 0.31
CCNC(=O)N1c2ccccc2Sc2ccccc21 | µM | 35
CCCCNC(=O)N1c2ccccc2Sc2ccccc21 | µM | 24.7
O=C(NCCN1CCOCC1)N1c2ccccc2Sc2ccccc21 | µM | 6.91
CCCN(CCC)C(=O)N1c2ccccc2Sc2ccccc21 | µM | 0.43
O=C(NC1CCCC1)N1c2ccccc2Sc2ccccc21 | µM | 2.99
O=C(NC12CC3CC(CC(C3)C1)C2)N1c2ccccc2Sc2ccccc21 | µM | 0.35
CNC(=O)N1c2ccccc2Sc2ccccc21 | µM | 18.3
CN1CCN(C(=O)N2c3ccccc3Sc3ccccc32)CC1 | µM | 17.1
NC(=O)N1c2ccccc2Sc2ccccc21 | µM | 90.8
CC(C)NC(=O)N1c2ccccc2Sc2ccccc21 | µM | 3.41
